Reported values of GI50 for individual entries
# Tested on: HL-60
# TEST_DESCRIPTION: NCI tumour cell line growth inhibition, 48 h
Activity calls are given as the source filed them. Rule as the data show it: active = GI50 up to about 1.1 µM and inactive = higher.

Known results for compounds:
O=C(NCC(=O)N1CCOC1=O)OCc1ccccc1 = > 100 µM (inactive)
CCOC(=O)C1=C(C)NC(=O)N([N+](=O)[O-])C1c1ccccc1C(F)(F)F (stereo unspecified) = 55.2 µM (inactive)
CN1CCN(C(=S)N(C)C(=O)c2ccco2)CC1 = > 10 µM (inactive)
COc1ccc2oc(OC)c(CC=C(C)C)c(=O)c2c1C = > 100 µM (inactive)
CC(C)(C)C1=CC(=C2C=Cc3ccccc3O2)C=C(C(C)(C)C)C1=O = 1.9 µM (inactive)

*Q* Can you look up the measured GI50 of COc1cc2c(c(OC)c1)C1(CC(CC#N)C2)SCCS1 (stereo unspecified) for me?
*A* > 100 µM (inactive)
